# Assayed target: NPFF2 (Homo sapiens)
# Construct: expressed in transfected cells; host or cells: NIH3T3
# Assay explanation: Receptor Selection and Amplification Technology (R-SAT) functional assay, NPFF2
# Format: cell-based
# Experimental setup: R-SAT data, Table 2; multiple entries = different batches; read-out: NPFF2b % Efficacy Mean
Structures can show the parent of a compound that is named as a salt.
Measure: Emax (%)
Unit % implied. Number only.

Example results:
• Cl.N=C(N)N/N=C/c1ccc(Br)c(Br)c1 [Compound 3093, Hydrochloride] = 85.3
• NC(N)=N/N=C/c1ccc(Cl)c(Cl)c1 [Compound 1045, Hydrochloride] = 63.8

Would you kindly share the measured Emax for Cl.N=C(N)NN=Cc1ccc(Cl)c(Cl)c1 [Compound 1045.HCl] ?
67.6

Record: NC(N)=NN=Cc1ccc(-c2ccccc2C(F)(F)F)o1 (racemic) [Compound 2616, Hydrochloride]
63

###

Entries and their EC50 values follow.
# Assayed target: NPFF2 (Homo sapiens, UniProt Q9Y5X5)
# Construct: expressed in transfected cells; host or cells: NIH3T3
# Sequence (Q9Y5X5 103-522): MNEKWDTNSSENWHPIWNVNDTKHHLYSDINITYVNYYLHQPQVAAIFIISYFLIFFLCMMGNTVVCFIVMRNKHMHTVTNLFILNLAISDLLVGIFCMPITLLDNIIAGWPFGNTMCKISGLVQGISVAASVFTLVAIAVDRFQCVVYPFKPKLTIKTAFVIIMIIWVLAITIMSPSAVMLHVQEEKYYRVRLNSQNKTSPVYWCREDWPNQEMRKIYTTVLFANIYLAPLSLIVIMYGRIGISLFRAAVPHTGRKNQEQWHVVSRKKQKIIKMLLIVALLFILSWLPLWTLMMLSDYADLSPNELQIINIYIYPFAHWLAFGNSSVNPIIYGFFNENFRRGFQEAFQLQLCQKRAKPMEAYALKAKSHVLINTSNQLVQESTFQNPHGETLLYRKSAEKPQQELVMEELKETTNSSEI
# Assay explanation: Receptor Selection and Amplification Technology (R-SAT) functional assay, NPFF2
# Assay type: cell-based
# Experimental setup: R-SAT, Table 1; NA = No activity detectable at the highest dose tested (20 μM); read-out: NPFF2 pEC50 (converted)
Counter-ions that a name gives are not always drawn.
# value in nM; strip the unit string

* CCc1ccc(C(C)=NNC(=N)N)cc1 [Compound 3020, Hydrochloride] | 1260

Missing value: EC50, NPFF2 (Homo sapiens, UniProt Q9Y5X5), entry CCN(CCO)c1ccc(C=NNC(=N)N)c(C)c1 [Compound 3036, Hydrochloride] . Fill in?
631

Could you do the same for N=C(N)NN=Cc1cccc(C(F)(F)F)c1F [Compound 2065, Hydrochloride] , please?
3160

Queued: COc1cc(C=NNC(=N)N)cc(OC)c1 [Compound 2007, Hydrochloride]
3160

Let us now turn to COc1ccc(C=NNC(=N)N)cc1Cl [Compound 2043, Hydrochloride]
2000

Now give it for N=C(N)NN=Cc1cc2c(cc1Br)OCO2 [Compound 3015, Hydrochloride] too.
1260

Please answer likewise for N=C(N)NN=Cc1ccc(F)c(Cl)c1 [Compound 2013, Hydrochloride]
794

Would you kindly repeat that for COc1ccc(C(C)=NNC(=N)N)c(O)c1 (mixture of isomers) [Compound 3030, Hydrochloride] ?
6310

Same question for COc1ccc(OC)c(C(C)=NNC(=N)N)c1 (mixture of isomers) [Compound 3029, Hydrochloride] please.
5010

Next record, please: N=C(N)NN=Cc1ccc(Br)cc1F [Compound 2018, Hydrochloride]
3160

Now try CN(CCO)c1ccc(C=NNC(=N)N)cc1 [Compound 3041, Hydrochloride] .
10000

Next entry: N=C(N)NN=Cc1ccc(C(F)(F)F)c(F)c1 [Compound 2063, Hydrochloride]
2510

Another compound to check: CCOc1ccc(C=NNC(=N)N)cc1 [Compound 4005, Hydrochloride]
5010

###

# Assayed target: UniProtKB Q9GZQ6
# Assay explanation: Receptor Selection and Amplification Technology (R-SAT) functional assay, NPFF1
# Assay type: cell-based
# Set-up: expressed in transfected cells; host or cells: NIH3T3
# Experimental setup: R-SAT, Table 1; Efficacy is relative to endogenous ligand; read-out: NPFF1 % Efficacy
Counter-ions that a name gives are not always drawn.
Checkbox rule: Emax lower than 9% = fulfilled; Emax not lower than 9% = not fulfilled.

Solved entries (count: 3):
* N=C(N)NN=Cc1ccc(F)c2ccccc12 [Compound 2072, Hydrochloride] | not fulfilled
* COc1ccc2ccccc2c1C=NNC(=N)N [Compound 3007, Hydrochloride] | not fulfilled
* COc1cc(C=NNC(=N)N)cc(OC)c1 [Compound 2007, Hydrochloride] | fulfilled

Hello, I'm reviewing records and need to know if Emax of N=C(N)NN=Cc1ccc(Cl)c(F)c1 [Compound 2030, Hydrochloride] is below 9%. Could you check?
fulfilled

Also N=C(N)NN=Cc1ccc(F)c(Br)c1 [Compound 2010, Hydrochloride] ?
fulfilled

Param item: CCCOc1ccc(C=NNC(=N)N)cc1 [Compound 4006, Hydrochloride]
not fulfilled

###

Listed compounds paired with reported Emax
# Assayed target: NPFF1 (Homo sapiens, UniProt Q9GZQ6)
# Sequence (Q9GZQ6 whole entry, species assumed): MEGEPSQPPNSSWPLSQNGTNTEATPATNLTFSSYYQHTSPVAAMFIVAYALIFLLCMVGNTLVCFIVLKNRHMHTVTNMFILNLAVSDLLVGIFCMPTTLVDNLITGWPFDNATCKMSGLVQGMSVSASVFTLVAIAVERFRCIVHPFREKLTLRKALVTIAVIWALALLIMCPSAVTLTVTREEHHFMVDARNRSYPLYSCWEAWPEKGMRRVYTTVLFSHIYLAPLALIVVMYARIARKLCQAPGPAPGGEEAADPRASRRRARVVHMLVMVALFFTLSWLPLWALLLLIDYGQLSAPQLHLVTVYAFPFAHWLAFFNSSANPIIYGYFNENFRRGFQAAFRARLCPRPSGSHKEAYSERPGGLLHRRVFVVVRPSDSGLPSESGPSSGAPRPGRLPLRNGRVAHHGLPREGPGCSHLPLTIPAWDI
# Assay explanation: Receptor Selection and Amplification Technology (R-SAT) functional assay, NPFF1
# Type: cell-based
# Parameters: expressed in transfected cells; host or cells: NIH3T3
# Experimental setup: R-SAT data, Table 2; multiple entries = different batches; read-out: NPFF1 % Efficacy Mean
Counter-ions that a name gives are not always drawn.
Field: numeric (%). Do not append units.

Here is how some compounds turned out for Emax.
• Cl.N=C(N)N/N=C/c1ccc(Br)c(Br)c1 [Compound 3093, Hydrochloride] = 10.2
• NC(N)=NN=Cc1ccc(-c2ccccc2C(F)(F)F)o1 (racemic) [Compound 2616, Hydrochloride] = 55

Return reported Emax; argument: NC(N)=N/N=C/c1ccc(Cl)c(Cl)c1 [Compound 1045, Hydrochloride]
6.3

Do the same for Cl.N=C(N)NN=Cc1ccc(Cl)c(Cl)c1 [Compound 1045.HCl] please
17.7

###

# Assayed target: NPFF2 (Homo sapiens)
# Construct: expressed in transfected cells; host or cells: NIH3T3
# Assay explanation: Receptor Selection and Amplification Technology (R-SAT) functional assay, NPFF2
# Type: cell-based
# Experimental setup: R-SAT, Table 1; NA = No activity detectable at the highest dose tested (20 μM); read-out: NPFF2 pEC50 (converted)
Counter-ions that a name gives are not always drawn.
Kindly apply the following: 1 if EC50 is less than 3000 nM, 0 in every other case.

- CC(C)Oc1ccc(C=NNC(=N)N)cc1 [Compound 2025]: 0
- CC(=NNC(=N)N)c1ccc2c(c1)CCCC2 [Compound 3024, Hydrochloride]: 1
- COc1cc(Cl)cc(C=NNC(=N)N)c1OC [Compound 2059, Hydrochloride]: 0
- CC(=NNC(=N)N)c1ccc(Br)cc1 [Compound 3016, Hydrochloride]: 1
- Cc1cc(C=NNC(=N)N)cc(C)c1O [Compound 2033, Hydrochloride]: 0
- N=C(N)NN=Cc1ccc(C(F)(F)F)cc1 [Compound 4002, Hydrochloride]: 1
- COc1ccc(C=NNC(=N)N)cc1C(F)(F)F [Compound 2073, Hydrochloride]: 1
- CC(=NNC(=N)N)c1ccc(N2CCCCC2)cc1 [Compound 3039, Hydrochloride]: 1

# next molecule below
Field: below-cutoff. Rule: recorded EC50 strictly less than 3000 nM. Subject: CCCCC(=NNC(=N)N)c1ccc(N(C)C)cc1 (mixture of isomers) [Compound 3035]
1

###

# maps each entry to its Emax
# Assayed target: NPFF1 (Homo sapiens)
# Assay explanation: Receptor Selection and Amplification Technology (R-SAT) functional assay, NPFF1
# Format: cell-based
# Parameters: expressed in transfected cells; host or cells: NIH3T3
# Experimental setup: R-SAT, Table 1; Efficacy is relative to endogenous ligand; read-out: NPFF1 % Efficacy
Counter-ions that a name gives are not always drawn.
Respond numerically; units are % and should not be typed.

* COc1ccc(C=NNC(=N)N)cc1C(F)(F)F [Compound 2073, Hydrochloride] | 13

API: value(readout=Emax, system=NPFF1 (Homo sapiens)) for record Cc1cccc(C=NNC(=N)N)c1 [Compound 3018, Hydrochloride]
13

Entry to check: N=C(N)NN=Cc1ccc(Br)cc1F [Compound 2018, Hydrochloride]
13

Another molecule to look at: CC(=NNC(=N)N)c1cccc(C)c1 [Compound 3017, Hydrochloride]
17

Repeat for the following molecule: COc1ccc(C=NNC(=N)N)cc1Br [Compound 2014, Hydrochloride]
8

###

Recorded pEC50 for the following compounds
# Assayed target: NPFF2 (Homo sapiens, UniProt Q9Y5X5)
# Construct: expressed in transfected cells; host or cells: NIH3T3
# Assay explanation: Receptor Selection and Amplification Technology (R-SAT) functional assay, NPFF2
# Assay type: cell-based
# Experimental setup: NPFF2b pEC50 Mean, R-SAT data, Table 2; multiple entries = different batches
Structures can show the parent of a compound that is named as a salt.
In textbook form, pEC50 equals minus log to base ten of the concentration in mol/L.

• NC(N)=NN=Cc1ccc(-c2ccccc2C(F)(F)F)o1 (racemic) [Compound 2616, Hydrochloride] = 7.00

// lookup pEC50 for Cl.N=C(N)NN=Cc1ccc(Cl)c(Cl)c1 [Compound 1045.HCl]
6.00

###

# Assayed target: NPFF2 (Homo sapiens, UniProt Q9Y5X5)
# Construct: expressed in transfected cells; host or cells: NIH3T3
# Assay explanation: Receptor Selection and Amplification Technology (R-SAT) functional assay, NPFF2
# Type: cell-based
# Experimental setup: R-SAT, Table 1; NA = No activity detectable at the highest dose tested (20 μM); read-out: NPFF2 pEC50 (converted)
Counter-ions that a name gives are not always drawn.
Measure: EC50 (nM)
Form entry: value (nM) — number only.

Examples from the recorded data:
- CC(=NNC(=N)N)c1ccc(Cl)c(Cl)c1 [Compound 3012, Hydrochloride]: 251
- COc1cc(OC)c(C=NNC(=N)N)cc1Br [Compound 4015, Hydrochloride]: 2000
- N=C(N)NN=Cc1ccc(C(F)(F)F)cc1F [Compound 2060, Hydrochloride]: 3980
- COc1ccc(C=NNC(=N)N)cc1F [Compound 2009, Hydrochloride]: 7940
- N=C(N)NN=Cc1c2ccccc2cc2ccccc12 [Compound 2006, Hydrochloride]: 794

EC50 lookup needed for CCN(CC)c1ccc(C=NNC(=N)N)c(O)c1 [Compound 3037, Hydrochloride] , thanks.
3160

Now try COc1cccc(C=NNC(=N)N)c1OC [Compound 4004, Hydrochloride] .
10000

What about N=C(N)NN=Cc1ccc(F)c(C(F)(F)F)c1 [Compound 2068, Hydrochloride] ?
1000

Another molecule to check: COc1ccc(C=NNC(=N)N)c(C)c1C [Compound 2034, Hydrochloride]
2510
